hERG current change (%, negative = inhibition) at 10uM by entry:
# target.under.test: human ether-à-go-go-related gene (hERG) potassium channel (human, UniProt Q12809)
# Sequence (Q12809 whole entry, looked up): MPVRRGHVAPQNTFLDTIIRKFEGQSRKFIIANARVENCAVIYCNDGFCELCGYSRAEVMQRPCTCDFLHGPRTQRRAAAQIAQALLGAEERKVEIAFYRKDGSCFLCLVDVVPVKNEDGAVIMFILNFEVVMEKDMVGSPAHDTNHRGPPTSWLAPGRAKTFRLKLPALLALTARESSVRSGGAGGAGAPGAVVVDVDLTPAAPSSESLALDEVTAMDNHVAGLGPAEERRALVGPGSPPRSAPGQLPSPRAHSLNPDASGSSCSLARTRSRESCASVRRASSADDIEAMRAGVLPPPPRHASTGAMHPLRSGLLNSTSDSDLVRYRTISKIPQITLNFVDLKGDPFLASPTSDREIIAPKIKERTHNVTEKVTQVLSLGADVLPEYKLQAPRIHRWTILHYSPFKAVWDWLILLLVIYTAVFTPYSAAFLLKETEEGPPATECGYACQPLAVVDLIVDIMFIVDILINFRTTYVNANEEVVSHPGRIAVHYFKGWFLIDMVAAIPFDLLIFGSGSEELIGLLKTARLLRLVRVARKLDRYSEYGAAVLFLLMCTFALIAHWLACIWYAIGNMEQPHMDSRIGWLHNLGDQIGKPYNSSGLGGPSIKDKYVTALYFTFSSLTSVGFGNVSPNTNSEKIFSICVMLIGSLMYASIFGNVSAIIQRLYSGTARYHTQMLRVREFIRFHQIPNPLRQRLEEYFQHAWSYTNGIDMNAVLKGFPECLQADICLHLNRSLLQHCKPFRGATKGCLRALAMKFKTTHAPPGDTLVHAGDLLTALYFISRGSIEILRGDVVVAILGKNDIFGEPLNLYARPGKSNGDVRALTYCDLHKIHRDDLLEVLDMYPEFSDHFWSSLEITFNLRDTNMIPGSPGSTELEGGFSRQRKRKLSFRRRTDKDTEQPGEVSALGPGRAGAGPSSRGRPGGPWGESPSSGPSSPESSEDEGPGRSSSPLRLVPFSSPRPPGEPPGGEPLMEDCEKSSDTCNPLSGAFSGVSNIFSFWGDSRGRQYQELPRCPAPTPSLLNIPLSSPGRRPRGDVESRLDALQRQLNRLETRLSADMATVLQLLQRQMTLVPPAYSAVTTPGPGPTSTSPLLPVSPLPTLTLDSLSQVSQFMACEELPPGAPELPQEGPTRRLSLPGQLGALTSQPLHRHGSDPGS
# procedure.summary: primary screen, population patch clamp on CHO cells stably expressing hERG; higher = less effect of the substance
The campaign covered roughly 310,000 compounds. About 14,000 (4.5%) showed an effect of 50% or more. The effect is printed as a negative number. The sample holds strong results, similar compounds and a random draw of the others, so the mix is not that of the screen.
Write the answer as a number in %, unit excluded.

Some solved cases for reference:
[[record]]
molecule = "CC(C)C[C@@H](CO)N1CCN(CCCc2ccccc2)CCC1=O"
value = -31.1

[[record]]
molecule = "O=C(NCCS(=O)(=O)N1CCc2ccccc2C1)c1ccccc1"
value = -23

[[record]]
molecule = "COC(=O)CSc1nnc(-c2cccnc2)n1-c1cc(OC)cc(OC)c1"
value = -19.3


Query: hERG current change (%, negative = inhibition) at 10uM; subject: Cc1ccc(OCCNC(=O)CNC(=O)c2ccc(C)cc2)cc1
9.37

Also CC(C)C[C@@H](CC#N)N1CCN(CCc2ccccc2)CCC1=O ?
2.01

====

# target.under.test: human ether-à-go-go-related gene (hERG) potassium channel (human)
# procedure.summary: primary screen, population patch clamp on CHO cells stably expressing hERG; higher = less effect of the substance
Out of some 310,000 compounds screened, about 14,000 (4.5%) showed an effect of 50% or more. The effect is printed as a negative number. Shown is part of a subset that was picked to be rich in strong results.
reported.metric: hERG current change (%, negative = inhibition) at 10uM (%)
Write the answer as a number in %, unit excluded.

Some solved cases for reference:
[[record]]
molecule = "Cc1ccc(C(=O)C[n+]2ccc3ccccc3c2)cc1.[Br-]"
target_under_test = "human ether-à-go-go-related gene (hERG) potassium channel (human)"
readout_unit = "%"
value = -33.6

[[record]]
molecule = "CCCc1nc(SCc2ccccc2Cl)n[nH]1"
target_under_test = "human ether-à-go-go-related gene (hERG) potassium channel (human)"
readout_unit = "%"
value = 10.7

[[record]]
molecule = "Cc1cc(C)c[n+](CC(=O)c2ccc(-c3ccccc3)cc2)c1.[Br-]"
target_under_test = "human ether-à-go-go-related gene (hERG) potassium channel (human)"
readout_unit = "%"
value = -45.3

[[record]]
molecule = "CCn1c(C)nnc1SCC(=O)Nc1ccc(Cl)cc1"
target_under_test = "human ether-à-go-go-related gene (hERG) potassium channel (human)"
readout_unit = "%"
value = 10.3

[[record]]
molecule = "CCCC(c1nnnn1Cc1ccccc1)N1CCC(C(N)=O)CC1.Cl (stereo not drawn)"
target_under_test = "human ether-à-go-go-related gene (hERG) potassium channel (human)"
readout_unit = "%"
value = -3.44


human ether-à-go-go-related gene (hERG) potassium channel (human) / hERG current change (%, negative = inhibition) at 10uM / O=C(Cc1ccc([N+](=O)[O-])cc1)N1CCc2ccccc2C1 : value?
-17.7

Also CCCCn1c(SCc2cccc([N+](=O)[O-])c2)nc2ccsc2c1=O ?
10

Also O=C(NNC1=C(C(=O)C(F)(F)F)CCC1)c1cccc(Cl)c1 ?
7.77

Also Cc1ccc(SCCc2cc[n+](CC(=O)c3ccccc3)cc2)cc1 ?
-70.5

Also O=C(NNC(=S)Nc1ccc(Cl)cc1Cl)c1cccnc1 ?
8.1

Also Cc1onc(-c2c(F)cccc2Cl)c1C(=O)NCc1cccs1 ?
-21.2

Also CCc1nnc(NC(=O)CSc2nc3[nH]c(=O)cc(O)c3s2)s1 ?
-0.838

Also Cc1onc(-c2c(F)cccc2Cl)c1C(=O)Nc1c(C)n(C)n(-c2ccccc2)c1=O ?
0.00478

Also CCOC(=O)c1nc(C)n(-c2cc(OC)c(Cl)cc2Cl)n1 ?
5.95

Also Cc1cc[n+](CC(=O)c2ccc(NC(=O)c3ccccc3)cc2)cc1.[Br-] ?
2.6

Also CN(C)c1cc[n+](CC(=O)c2ccc(-c3ccccc3)cc2)cc1.[Cl-] ?
-2.97

Also CCN(CC)c1ccc(N=Cc2c(O)n(-c3ccc(Cl)cc3)c(=O)[nH]c2=O)cc1 ?
14.5

Also Cc1ccc[n+](CC(=O)c2ccc(-c3ccccc3)cc2)c1.[Br-] ?
-52.4

Also Cc1ccc(SCCNC(=O)c2ccccc2)cc1 ?
-0.806

Also C/C(CC(=O)Nc1ccccn1)=N\NC(=O)Cc1cccc2ccccc12 ?
1.01

Also CCCC(=O)NC(=S)Nc1cccc(Cl)c1N1CCCCC1 ?
14.1

====

# target.under.test: human ether-à-go-go-related gene (hERG) potassium channel (human, UniProt Q12809);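 further: peak tail current of the secondary pulse compared with the same well before compound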
# procedure.summary: primary screen, population patch clamp on CHO cells stably expressing hERG; higher = less effect of the substance
Screen size: about 310,000 compounds; about 14,000 (4.5%) showed an effect of 50% or more. The effect is printed as a negative number. The sample holds strong results, similar compounds and a random draw of the others, so the mix is not that of the screen.
reported.metric: hERG current change (%, negative = inhibition) at 10uM (%)
Write the answer as a number in %, unit excluded.

[[record]]
molecule = "O=C(Nc1ccc(-c2n[nH]c(=S)o2)cc1)c1ccccc1"
value = 15.6


Query: hERG current change (%, negative = inhibition) at 10uM; subject: Cn1cc(-c2nnnn2-c2ccccc2)c(=O)c2ccccc21
-8.94

Also Cc1ccc(-n2cc(CCCCCCCCC(=O)O)nn2)cc1 ?
-12.3

Also O=C(Cn1cc(-c2nnnn2-c2ccc(Cl)cc2)c(=O)c2ccccc21)c1ccccc1 ?
4.29

Also Clc1ccc(-n2nnnc2-c2ccccc2)cc1 ?
-0.933

====

# target.under.test: human ether-à-go-go-related gene (hERG) potassium channel (human);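 further: peak tail current of the secondary pulse compared with the same well before compound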
# procedure.summary: primary screen, population patch clamp on CHO cells stably expressing hERG; higher = less effect of the substance
Hit rate of the full screen: of about 310,000 compounds, about 14,000 (4.5%) showed an effect of 50% or more. The effect is printed as a negative number. What follows is part of a selection rich in strong results, with near analogues and random picks from the rest.
Lab note: anything with hERG current change (%, negative = inhibition) at 10uM at or over -20% counts as Yes; the rest go in No.

Could you please find out whether CCOC(=O)c1c(-c2ccccc2)oc2ccc(O)c(CN3CCOCC3)c12 has hERG current change (%, negative = inhibition) at 10uM that meets -20% or exceeds it?
No

====

# target.under.test: human ether-à-go-go-related gene (hERG) potassium channel (human);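 further: peak tail current of the secondary pulse compared with the same well before compound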
# procedure.summary: primary screen, population patch clamp on CHO cells stably expressing hERG; higher = less effect of the substance
Among all 310,000 compounds or so, about 14,000 (4.5%) showed an effect of 50% or more. Effects have a minus sign here. This excerpt belongs to a sample that is enriched for strong results.
reported.metric: hERG current change (%, negative = inhibition) at 10uM (%)
Write the answer as a number in %, unit excluded.

Some solved cases for reference:
[[record]]
molecule = "COc1ccc(C(CNC(=O)Nc2ccccc2)N2CCN(C)CC2)cc1 (stereo not shown)"
value = -12.8

[[record]]
molecule = "CN1CCN(C(CNC(=O)c2ccc(Br)o2)c2ccc(F)cc2)CC1 (stereo not shown)"
value = -17.5

[[record]]
molecule = "CC12CCC(C(=O)N(CCCCN3CCN(Cc4ccccc4)CC3)C1=O)C2(C)C.Cl (stereo not shown)"
value = -45.2


Query: hERG current change (%, negative = inhibition) at 10uM; subject: O=C(NNc1ccc([N+](=O)[O-])cc1)C12CC3CC(CC(C3)C1)C2
19.5

Also COc1ccc(C(CNC(=O)Nc2ccc(Cl)cc2)N2CCN(C)CC2)cc1 (stereo not shown) ?
-24.5

Also CCn1nnc(-c2ccccc2NC(=O)C(F)(F)F)n1 ?
-9.9

Also Cc1ccc(C(CNC(=O)Nc2ccccc2)N2CCN(C)CC2)cc1 (stereo not shown) ?
-28.9

====

# target.under.test: human ether-à-go-go-related gene (hERG) potassium channel (human);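 further: peak tail current of the secondary pulse compared with the same well before compound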
# procedure.summary: primary screen, population patch clamp on CHO cells stably expressing hERG; higher = less effect of the substance
The whole screen tested about 310,000 compounds, of which about 14,000 (4.5%) showed an effect of 50% or more. Effects have a minus sign here. The full list was thinned out, with strong results kept by preference.
reported.metric: hERG current change (%, negative = inhibition) at 10uM (%)
Write the answer as a number in %, unit excluded.

Query: hERG current change (%, negative = inhibition) at 10uM; subject: Cc1c(C(=O)NC2CCN(Cc3ccccc3)C2)oc2c(Cl)cccc12 (stereo not shown)
-71.8

Also CC(=O)O.CC1(C)CC(=O)C2=C(C1)NC1=C(C(=O)c3ccccc31)C2c1cc([N+](=O)[O-])ccc1O (stereo not shown) ?
-37.1

Also COc1cc(CCN2C(=O)N[C@@H](CCc3ccccc3)C(C(C)=O)=C2C)cc(OC)c1OC ?
-12.6

Also COc1ccc2cc(C3CC(c4ccco4)=NN3S(=O)(=O)c3ccccc3)c(Cl)nc2c1 (stereo not shown) ?
4.38
